Please go through the items and note down their logP.
- protocol_notes: Lipophilicity, log P of the compound
- Format: physicochemical
- run_parameters: octanol/water

Looking for the measured logP of `O=C(Cn1cc(C2(O)CCCC2)nn1)NC12CC3CC(CC(C3)C1)C2` , can you help?
1.51

Another: `COc1cccc(-c2cn(CC(=O)NC34CC5CC(CC(C5)C3)C4)nn2)c1`
2.63

`O=C(Cn1cc(-c2ccccc2)nn1)NC12CC3CC(CC(C3)C1)C2` ?
2.75

Try `O=C(Cn1cc(-c2ccc(F)c(F)c2)nn1)NC12CC3CC(CC(C3)C1)C2` next.
3.07

Another molecule: `O=C(Cn1cc(CCCO)nn1)NC12CC3CC(CC(C3)C1)C2`
0.61

All values here come from ChEMBL document CHEMBL3232935.
